Kindly supply the reported Kd values for the records listed here.
# Experimental target: T1, Bfl-1 (Homo sapiens, UniProt Q16548, C4S)
# T1 sequence (Q16548 1-153 C4S): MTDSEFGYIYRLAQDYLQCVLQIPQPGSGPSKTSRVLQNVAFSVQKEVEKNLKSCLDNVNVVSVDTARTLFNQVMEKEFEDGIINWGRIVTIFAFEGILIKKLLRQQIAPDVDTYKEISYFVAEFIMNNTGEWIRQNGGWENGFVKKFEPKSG
# Assay details: Bio-layer interferometry (BLI), immobilized Bfl-1
# Assay type: binding
# Design: Bfl-1 a.a; made in house; host or cells: E. coli BL21* (DE3)
# Run conditions: lower bound in μM

IN: Please give measured Kd of the following entry: WINDI: SEQ ID NO: 265; target Bcl-w (protein) DPKKVFDELKDRAENNVRRLKQKLEELYKEARKKDLTQEEREKLKTKYKTAMQLAALAAEGDIMNALLKARKLHKNGQVNEQQLEELARRLMELAKEAFQKAKDYANEFKYKLEY
OUT: > 25 µM

IN: Please give measured Kd of the following entry: XINDI: SEQ ID NO: 4; target Bcl-XL (protein) ADPKKVLDKAKDRAENVVRKLKKELEELYKEARKLDLTQEMRDRIRRTAIAARFQAHGDIFHAIKHAKEEARKLKKAGLVNSQQLDELKRRLRELDEEAEQRAEKLGKEFRLKLEY
OUT: > 50 µM

IN: Please give measured Kd of the following entry: 2-INDI: SEQ ID NO: 3; target Bcl-2 (protein) ADPKKVLDKAKDEAENRVRELKQRLEELYKEARKLDLTQEMRQELVDKARAASLQANGDIFYAILRALAEAEKLKKAGLVNSQQLDELKRRLEELAEEARRKAEKLRDEFRLKLEY
OUT: > 75 µM

IN: Please give measured Kd of the following entry: X-CDP07: SEQ ID NO: 47; target Bcl-xL (protein) ADPKKVLDKAKDRAENVVRKLKKELEELYKEARKLDLTQEMRDRIRLAAIAARIAAFGDIFHAIMEALEEARKLKKAGLVNSQQLDELKRRLEELDEEAAQRAEKLGKEFELKLEY
OUT: > 50 µM
